Cited source: paper PMC6838683

target: BB3 (Homo sapiens); construct: hIL-2Ra signal peptide (N); expressed in transfected cells; experiment: Real-time receptor internalization (TR-FRET), concentration-response; format: cell-based
Residues, ends and D or L forms follow the SMILES beside them.
recordedEndpoint: EC50

molecule	recordedEndpoint	result
CSCC[C@H](NC(=O)[C@H](Cc1c[nH]c2ccccc12)NC(=O)[C@H](Cc1c[nH]c2ccccc12)NC(=O)[C@H](CCC(=O)O)NC(=O)[C@@H]1CCCN1)C(=O)N[C@@H](CC(=O)O)C(=O)N[C@@H](Cc1ccc(O)cc1)C(=O)N[C@@H](CCC(N)=O)C(=O)N[C@@H](CCCCN)C(=O)N[C@@H](CCCNC(=N)N)C(=O)N[C@@H](Cc1ccc(O)cc1)C(=O)NCC(=O)NCC(=O)N[C@@H](Cc1ccccc1)C(=O)N[C@@H](CC(C)C)C(=O)O [Peptide 158.6] (H-PEWWMDYQKRYGGFL-OH)	EC50	9.55 µM

# evaluate next
Inquiry: Recall the recorded EC50 for CC(C)C[C@H](NC(=O)[C@H](Cc1ccccc1)NC(=O)CNC(=O)CNC(=O)[C@@H](N)Cc1ccc(O)cc1)C(=O)O with BB3 (Homo sapiens) and state it.
Reply text: 4.68 µM

###

biological target: BB3 (Homo sapiens, UniProt P32247); construct: hIL-2Ra signal peptide (N); expressed in transfected cells; assay: IP1 accumulation (Gq/11), HTRF; type: cell-based; details: IP1 accumulation assays pEC50, receptor BB3; mean, SEM and n (2-4)
Sequence (P32247 2-399 limits assumed): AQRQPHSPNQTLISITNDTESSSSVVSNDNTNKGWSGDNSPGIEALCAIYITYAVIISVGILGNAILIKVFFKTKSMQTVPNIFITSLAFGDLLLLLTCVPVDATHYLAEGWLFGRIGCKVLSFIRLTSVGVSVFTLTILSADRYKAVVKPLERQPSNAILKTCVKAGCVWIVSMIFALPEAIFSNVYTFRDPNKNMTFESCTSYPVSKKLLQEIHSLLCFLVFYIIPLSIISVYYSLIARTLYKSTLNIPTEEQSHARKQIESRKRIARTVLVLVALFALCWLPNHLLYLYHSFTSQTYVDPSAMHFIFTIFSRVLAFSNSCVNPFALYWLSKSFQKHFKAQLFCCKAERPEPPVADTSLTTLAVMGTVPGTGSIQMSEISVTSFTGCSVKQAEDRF
recordedEndpoint: pEC50
Quick note: pEC50 values are minus log10 of concentrations in mol/L.

# example entries with known answers
compound	measuredNumber
CSCC[C@H](NC(=O)[C@H](Cc1ccccc1)NC(=O)[C@H](Cc1cnc[nH]1)NC(=O)CNC(=O)[C@@H](NC(=O)[C@H](C)NC(=O)[C@H](Cc1c[nH]c2ccccc12)NC(=O)[C@H](CC(C)C)NC(=O)[C@H](CC(N)=O)NC(=O)CN)[C@@H](C)O)C(N)=O [59 resynthesized]	6.28
CSCC[C@H](NC(=O)[C@H](Cc1ccccc1)NC(=O)CNC(=O)CNC(=O)[C@@H](N)Cc1ccc(O)cc1)C(=O)N[C@@H](CCCNC(=N)N)C(=O)N[C@@H](CCCNC(=N)N)C(=O)N[C@H](C(N)=O)C(C)C [Peptide 158.3]	7.05

Query compound follows.
Inquiry: Recorded pEC50 for CSCC[C@H](NC(=O)[C@H](Cc1ccccc1)NC(=O)CNC(=O)CNC(=O)[C@@H](N)Cc1ccc(O)cc1)C(=O)O [158.1 (Phoenix)] , please?
Reply text: 7.90

###

molecular target: MRGPRX2 (Homo sapiens); construct: host or cells: HTLA cells (HEK293-derived); test: β-arrestin recruitment (Tango), known peptide receptors; format: cell-based; settings: mean, n = 3
Sequence (Q96LB1 whole entry): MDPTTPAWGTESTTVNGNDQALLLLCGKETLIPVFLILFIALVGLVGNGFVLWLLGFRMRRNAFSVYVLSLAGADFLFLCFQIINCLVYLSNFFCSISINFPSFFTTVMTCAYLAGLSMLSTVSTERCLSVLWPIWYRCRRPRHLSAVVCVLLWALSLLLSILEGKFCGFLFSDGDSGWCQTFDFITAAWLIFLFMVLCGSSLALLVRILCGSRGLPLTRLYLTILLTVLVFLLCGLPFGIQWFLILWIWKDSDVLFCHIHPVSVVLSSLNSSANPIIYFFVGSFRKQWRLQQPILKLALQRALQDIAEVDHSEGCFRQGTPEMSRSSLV
Criterion: Emax, Tango (fold over basal) strictly under 5 fold over basal. Met: y. Not met: n.

Example cases with answers are listed next.
sequenceText	assignedCategory
AGCKNFFWKTFTSC (disulfide) [Peptide 103]	n
QMAVKKYLAAVL [Peptide 84]	n

Inquiry: In plain terms, does ATVRNEDKWKPLNNPRNRDLFFRRLQAYFK [Peptide 175] come in under 5 fold over basal for Emax, Tango (fold over basal)?
Reply text: y

Inquiry: Strictly below 5 fold over basal: is that where Emax, Tango (fold over basal) of WYKHVASPRYHTVGRAAGLLMGL [Peptide 151] sits?
Reply text: y
